Molecular target: cynomolgus CD3εδ Fc heterodimer (Cy CD3ε Fc / CD3δ Fc-HIS) (cynomolgus) (UniProt Q95LI8)
Sequence (chain, as listed by the source mutant, chain 1 of 2): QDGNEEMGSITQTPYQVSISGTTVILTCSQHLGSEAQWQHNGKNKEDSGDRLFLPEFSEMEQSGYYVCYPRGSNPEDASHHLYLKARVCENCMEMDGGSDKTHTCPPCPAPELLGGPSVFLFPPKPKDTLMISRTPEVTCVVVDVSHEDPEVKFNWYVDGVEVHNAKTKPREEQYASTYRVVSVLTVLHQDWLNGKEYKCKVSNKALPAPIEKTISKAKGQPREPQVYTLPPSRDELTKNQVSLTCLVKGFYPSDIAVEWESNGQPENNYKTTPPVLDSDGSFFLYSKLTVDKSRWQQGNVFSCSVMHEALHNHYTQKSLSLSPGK
Sequence (Q95LI8 22-100, stated change not applied, chain 2 of 2): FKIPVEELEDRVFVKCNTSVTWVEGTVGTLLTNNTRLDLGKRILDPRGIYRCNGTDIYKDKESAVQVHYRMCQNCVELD
Assay: BLI (ForteBio), pH 6.0
MEASURED_QUANTITY: kon (M⁻¹ s⁻¹)
Note: unit M⁻¹ s⁻¹ is implicit; provide only the numeric part.

SAD10320_P04_A12 (antibody, V domains shown) VH: QVQLVQSGAEVKKPGASVKVSCKASGFNIKDYYMHWVRQAPGQRLEWMGWIDLENANTIYDAKFQGRVTITRDTSASTAYMELSSLRSEDTAVYYCARDAYGHVFYDVWGQGTLVTVSS VL: DIVMTQSPDSLAVSLGERATINCKSSQSLLNARTGKNYLAWYQQKPGQPPKLLIYWASTRESGVPDRFSGSGSGTDFTLTISSLQAEDVAVYYCKQSYHHRTFGGGTKVEIK = 69700

Requested field: kon. Item: SAD10320_P03_F08 (antibody, V domains shown) VH: QVQLVQSGAEVKKPGASVKVSCKASGFNIKDYYMHWVRQAPGQRLEWMGWIDLENANTIYDAKFQGRVTITRDTSASTAYMELSSLRSEDTAVYYCARDAYGHDFYDVWGQGTLVTVSS VL: DIVMTQSPDSLAVSLGERATINCKSSQSLLNARPGKNYLAWYQQKPGQPPKLLIYWASTRESGVPDRFSGSGSGTDFTLTISSLQAEDVAVYYCKQSYSRRTFGGGTKVEIK
179000
